- Test system: RPMI 6666
- Experimental Protocol: drug activity profiling cytotoxicity
- Type: cell-based
- Measurement Setup: Homo sapiens; RPMI 6666 cell line, Hodgkin's lymphoma; read-out: Aza-T-dCyd IC50
- Procedure: To obtain a biomarker for Aza-T-dCyd, drug activity profiling analysis was performed to evaluate the cytotoxicity of 200 cell lines. The drug responsiveness analysis of Aza-T-dCyd through drug activity profiling and genomic analysis of 200 cell lines confirmed the potent efficacy of Aza-T-dCyd in various solid tumors (Table 2).
Property: pIC50
Answers are plain numbers, as −log10 of the molar value.

Reported pIC50 for Nc1ncn([C@H]2CC(O)[C@@H](CO)S2)c(=O)n1 (stereo partly shown) : what is it? 5.98

---

- Experimental Protocol: Pharmacokinetic evaluation in Dog
- Type: in vivo
- Measurement Setup: in vivo; Dog, PO 0.33 mg/kg
- Procedure: Aza-T-dCyd was administered orally and intravenously at various concentrations to Mice, Rats and Dogs to determine the PK profile.
Property: AUC(0-t) (ng·h/mL)
Answers are plain numbers, in ng·h/mL.

Reported AUC(0-t) for Nc1ncn([C@H]2CC(O)[C@@H](CO)S2)c(=O)n1 (stereo partly shown) : what is it? 790

---

- Tested on: NALM-6
- Experimental Protocol: drug activity profiling cytotoxicity
- Type: cell-based
- Measurement Setup: Homo sapiens; NALM-6 cell line, ALL; read-out: Aza-T-dCyd IC50
- Experimental: To obtain a biomarker for Aza-T-dCyd, drug activity profiling analysis was performed to evaluate the cytotoxicity of 200 cell lines. The drug responsiveness analysis of Aza-T-dCyd through drug activity profiling and genomic analysis of 200 cell lines confirmed the potent efficacy of Aza-T-dCyd in various solid tumors (Table 2).
Property: IC50 (µM)
Answers are plain numbers, in µM.

Record lookup: for NALM-6, what IC50 belongs to Nc1ncn([C@H]2CC(O)[C@@H](CO)S2)c(=O)n1 (stereo partly shown) ? 0.0338

---

- Tested on: Daudi
- Experimental Protocol: drug activity profiling cytotoxicity
- Type: cell-based
- Measurement Setup: Homo sapiens; Daudi cell line, Burkitt's lymphoma; read-out: Aza-T-dCyd IC50
Property: IC50 (nM)
Numbers only, in nM.

Reported IC50 for Nc1ncn([C@H]2CC(O)[C@@H](CO)S2)c(=O)n1 (stereo partly shown) [Aza-T-dCyd, 4′-thio-5-aza-2′-deoxycytidine] : what is it? 451

---

- Experimental Protocol: Pharmacokinetic evaluation in Rat
- Assay type: in vivo
- Measurement Setup: in vivo; Rat, PO 1 mg/kg
Property: AUC(0-t) (ng·h/mL)
One number for each entry, in ng·h/mL.

Reported AUC(0-t) for Nc1ncn([C@H]2CC(O)[C@@H](CO)S2)c(=O)n1 (stereo partly shown) : what is it? 459

---

- Experimental Protocol: Pharmacokinetic evaluation in Dog
- Format: in vivo
- Measurement Setup: in vivo; Dog, PO 0.33 mg/kg
Property: Tmax

Reported Tmax for Nc1ncn([C@H]2CC(O)[C@@H](CO)S2)c(=O)n1 (stereo partly shown) : what is it? 40.2 min

---

- Tested on: JeKo-1
- Experimental Protocol: drug activity profiling cytotoxicity
- Format: cell-based
- Measurement Setup: Homo sapiens; JeKo-1 cell line, B-cell lymphoma; read-out: Aza-T-dCyd IC50
Property: pIC50
Answers are plain numbers, as −log10 of the molar value.

Reported pIC50 for Nc1ncn([C@H]2CC(O)[C@@H](CO)S2)c(=O)n1 (stereo partly shown) : what is it? 7.41

---

- Tested on: T47D
- Experimental Protocol: drug activity profiling cytotoxicity
- Format: cell-based
- Measurement Setup: Homo sapiens; T47D cell line, Breast; read-out: Aza-T-dCyd IC50
Property: IC50

Reported IC50 for Nc1ncn([C@H]2CC(O)[C@@H](CO)S2)c(=O)n1 (stereo partly shown) [Aza-T-dCyd, 4′-thio-5-aza-2′-deoxycytidine] : what is it? > 10 µM

---

- Experimental Protocol: Pharmacokinetic evaluation in Dog
- Type: in vivo
- Measurement Setup: in vivo; Dog, PO 0.33 mg/kg
- Method: Aza-T-dCyd was administered orally and intravenously at various concentrations to Mice, Rats and Dogs to determine the PK profile.
Property: AUC(0-inf) (ng·h/mL)
Give bare numbers, in ng·h/mL.

Reported AUC(0-inf) for Nc1ncn([C@H]2CC(O)[C@@H](CO)S2)c(=O)n1 (stereo partly shown) : what is it? 880

---

- Tested on: Capan-1
- Experimental Protocol: drug activity profiling cytotoxicity
- Type: cell-based
- Measurement Setup: Homo sapiens; Capan-1 cell line, Pancreas; read-out: Aza-T-dCyd IC50
- Protocol: To obtain a biomarker for Aza-T-dCyd, drug activity profiling analysis was performed to evaluate the cytotoxicity of 200 cell lines. The drug responsiveness analysis of Aza-T-dCyd through drug activity profiling and genomic analysis of 200 cell lines confirmed the potent efficacy of Aza-T-dCyd in various solid tumors (Table 2).
Property: pIC50
Give bare numbers, as −log10 of the molar value.

Reported pIC50 for Nc1ncn([C@H]2CC(O)[C@@H](CO)S2)c(=O)n1 (stereo partly shown) : what is it? 5.48

---

- System: NCI-H747
- Experimental Protocol: drug activity profiling cytotoxicity
- Assay type: cell-based
- Measurement Setup: Homo sapiens; NCI-H747 cell line, Colon; read-out: Aza-T-dCyd IC50
- Protocol: To obtain a biomarker for Aza-T-dCyd, drug activity profiling analysis was performed to evaluate the cytotoxicity of 200 cell lines. The drug responsiveness analysis of Aza-T-dCyd through drug activity profiling and genomic analysis of 200 cell lines confirmed the potent efficacy of Aza-T-dCyd in various solid tumors (Table 2).
Property: IC50
Dear colleague, please send the value followed by its unit.

Reported IC50 for Nc1ncn([C@H]2CC(O)[C@@H](CO)S2)c(=O)n1 (stereo partly shown) : what is it? 319 nM

---

- Tested on: DOHH-2
- Experimental Protocol: drug activity profiling cytotoxicity
- Assay type: cell-based
- Measurement Setup: Homo sapiens; DOHH-2 cell line, B-cell lymphoma; read-out: Aza-T-dCyd IC50
Property: pIC50
Give bare numbers, as −log10 of the molar value.

Reported pIC50 for Nc1ncn([C@H]2CC(O)[C@@H](CO)S2)c(=O)n1 (stereo partly shown) : what is it? 6.22

---

- Test system: CFPAC-1
- Experimental Protocol: drug activity profiling cytotoxicity
- Assay type: cell-based
- Measurement Setup: Homo sapiens; CFPAC-1 cell line, Pancreas; read-out: Aza-T-dCyd IC50
Property: pIC50
Give bare numbers, as −log10 of the molar value.

Reported pIC50 for Nc1ncn([C@H]2CC(O)[C@@H](CO)S2)c(=O)n1 (stereo partly shown) : what is it? 5.76

---

- Experimental Protocol: Pharmacokinetic evaluation in Mice (Table 4)
- Measurement Setup: mouse, in vivo, Table 4, PO 3 mg/kg
Property: AUC(0-inf) (ng·h/mL)
Numbers only, in ng·h/mL.

Reported AUC(0-inf) for Nc1ncn([C@H]2CC(O)[C@@H](CO)S2)c(=O)n1 (stereo partly shown) [Aza-T-dCyd, 4′-thio-5-aza-2′-deoxycytidine] : what is it? 443

---

- Experimental Protocol: Pharmacokinetic evaluation in Mice (Table 4)
- Measurement Setup: mouse, in vivo, Table 4, PO 0.5 mg/kg, read-out: T½ (converted)
Property: half-life (min)
Answers are plain numbers, in min.

Reported half-life for Nc1ncn([C@H]2CC(O)[C@@H](CO)S2)c(=O)n1 (stereo partly shown) : what is it? 18.2

---

- Experimental Protocol: Pharmacokinetic evaluation in Rat
- Assay type: in vivo
- Measurement Setup: in vivo; Rat, PO 0.5 mg/kg
Property: Tmax
Dear colleague, please send the value followed by its unit.

Reported Tmax for Nc1ncn([C@H]2CC(O)[C@@H](CO)S2)c(=O)n1 (stereo partly shown) : what is it? 2 h

---

- Experimental Protocol: Pharmacokinetic evaluation in Rat
- Type: in vivo
- Measurement Setup: in vivo; Rat, PO 1 mg/kg
Property: AUC(0-inf) (ng·h/mL)
Give bare numbers, in ng·h/mL.

Reported AUC(0-inf) for Nc1ncn([C@H]2CC(O)[C@@H](CO)S2)c(=O)n1 (stereo partly shown) [Aza-T-dCyd, 4′-thio-5-aza-2′-deoxycytidine] : what is it? 790

---

- Experimental Protocol: Pharmacokinetic evaluation in Mice (Table 3)
- Assay type: in vivo
- Measurement Setup: mouse, in vivo; Mice, Table 3, PO 1 mg/kg; read-out: T½ (converted)
Property: half-life (min)
Give bare numbers, in min.

Reported half-life for Nc1ncn([C@H]2CC(O)[C@@H](CO)S2)c(=O)n1 (stereo partly shown) : what is it? 37.7

---

- Test system: Detroit 562
- Experimental Protocol: drug activity profiling cytotoxicity
- Type: cell-based
- Measurement Setup: Homo sapiens; Detroit 562 cell line, Head and Neck; read-out: Aza-T-dCyd IC50
Property: pIC50
Numbers only, as −log10 of the molar value.

Reported pIC50 for Nc1ncn([C@H]2CC(O)[C@@H](CO)S2)c(=O)n1 (stereo partly shown) [Aza-T-dCyd, 4′-thio-5-aza-2′-deoxycytidine] : what is it? 7.09
